# Target of assay: T1, full length human GLP-1R with N-terminal FLAG tag and C-terminal GFP tag, on CHO cells (human, UniProt P43220 24-463)
# T1 construct: whole, on cells; the cell line itself is tied to UniProt P43220; also called FLAG-GLP-1R-GFP; CHO-GLP-1R
# Experiment summary: flow cytometry, expressing vs parent CHO cells
Listed binders paired with reported MFI Ratio
Quantity name: MFI Ratio

| Binder | Quantity name | Measured |
| --- | --- | --- |
| GLP1R-222-081 (antibody, V domains shown, IgG) VH: QVQLVESGGGVVQPGRSLRLSCAASGFTFDNYALHWVRQAPGKGLEWVALISYDAGNKYYADSVKGRFTISRDNSKNTLYLQMNSLRAEDTAVYYCAKHMSMQEGAVTGEGQAAKEFIAWLVKGFVRADLVGDAFDVWGQGTLVTVSS VL: QSVLTQPPSVSAAPGQKVTISCSGSSSNIGSDYVSWYQQLPGTAPKLLIYDNNKRSSGIPDRFSGSKSGTSATLGITGLQTGDEADYYCGTWDESLRSWVFGGGTKLTVL | MFI Ratio | 850 |
| GLP1R-222-090 (antibody, V domains shown, IgG) VH: QVQLVESGGGVVQPGRSLRLSCAASGFSFSDYGIHWVRQAPGKGLEWVALISYEGSNKYYADSVKGRFTISRDNSKNTLYLQMNSLRAEDTAVYYCAKHMSMQEGAVTGEKQAAKEFIAWLVKGRVRADLVGDAFDVWGQGTLVTVSS VL: QSVLTQPPSVSAAPGQKVTISCSGSSSNIADNYVSWYQQLPGTAPKLLIYDNNKRASGIPDRFSGSKSGTSATLGITGLQTGDEADYYCATWDNRLSAGVFGGGTKLTVL | MFI Ratio | 525 |

Provenance of the data: patent US20250340658A1
